- Tested on: GABA-A receptor
- Protocol summary: Cortical tissue homogenate study: radioactive chloride uptake into vesicles through the GABA-A receptor
- Assay type: biochemical, rat
- Reported conditions: doses of 3alpha-hydroxy-5alpha-pregnan-20-one: 1=0, 2=50, 3=100, 4=150, 5=200, 6=1000, 7=3000 nM; + 10 μM GABA + 30 μM steroid
Observation type: Within group change from 0 nM 3alpha-hydroxy-5alpha-pregnan-20-one

Molecule | Test value
CC(=O)[C@H]1CC[C@H]2[C@@H]3CC[C@H]4C[C@@H](O)CC[C@]4(C)[C@H]3C(=O)C[C@]12C [UC1017, 3beta hydroxy-5alpha-pregnan-11,20-dione] | All dosages = NS
CC(=O)[C@H]1CC[C@H]2[C@@H]3CC=C4C[C@@H](OS(=O)(=O)[O-])CC[C@]4(C)[C@H]3CC[C@]12C.[Na+] [UC1018] | All dosages = NS
